Test system: Escherichia coli
Test: Minimum inhibitory concentration (MIC) to control the growth of Escherichia coli strain PCM 2057
Type: functional
Observed property: MIC

Qu. Field: MIC (Escherichia coli). Entry: CC(N)C(=O)NC(C(C)C)P(=O)(O)O (centres undefined)
Ans. > 512 µg/mL

Qu. Field: MIC (Escherichia coli). Entry: CC(C)CC(N)C(=O)NC(C1CCCC1)P(=O)(O)O (centres undefined)
Ans. > 512 µg/mL

Qu. Field: MIC (Escherichia coli). Entry: CC(N)C(=O)NC(CCC(=O)O)P(=O)(O)O (centres undefined)
Ans. 64 µg/mL

---

Listed here are compounds together with their documented IC50.
System: Klebsiella aerogenes
Test: Concentration (IC50) to inhibit the growth of Klebsiella aerogenes.
Type: functional, organism-based

Below are worked cases with known answers.
CC(N)C(=O)NC(CCC(=O)O)P(=O)(O)O (stereo not drawn)
4.8 µg/mL
CC(C)CC(N)C(=O)NC(Cc1ccccc1)P(=O)(O)O (stereo not drawn)
> 512 µg/mL
CC(N)C(=O)NC(Cc1ccccc1)P(=O)(O)O (stereo not drawn)
> 512 µg/mL
CC(C)CC(N)C(=O)NC(C1CC1)P(=O)(O)O (stereo not drawn)
> 512 µg/mL
CC(N)C(=O)N1CCCC1P(=O)(O)O (stereo not drawn)
> 512 µg/mL
CC(C)CC(N)C(=O)NC(C)(C)P(=O)(O)O (stereo not drawn)
4.4 µg/mL
COc1ccc(CC(NC(=O)C(N)CC(C)C)P(=O)(O)O)cc1OC (stereo not drawn)
> 512 µg/mL

# evaluate next
Qu. Given the entry CC(N)C(=O)NC(C)(C)P(=O)(O)O (stereo not drawn) , report its measured IC50.
Ans. 512 µg/mL

---

Listed here are compounds together with their documented IC50.
Test system: Enterococcus faecalis
Assay: Concentration (IC50) to inhibit the growth of Streptococcus faecalis.
Type: functional, organism-based

Below are worked cases with known answers.
COc1ccc(CC(NC(=O)C(N)CC(C)C)P(=O)(O)O)cc1OC (stereo not drawn)
> 512 µg/mL
CC(N)C(=O)NC(C)(C)P(=O)(O)O (stereo not drawn)
19 µg/mL

Qu. Given the entry CC(N)C(=O)NC(C1CC1)P(=O)(O)O (stereo not drawn) , report its measured IC50.
Ans. > 512 µg/mL

---

Listed here are molecules together with their documented MIC.
Test system: Escherichia coli
Test: Minimum inhibitory concentration (MIC) to control the growth of Escherichia coli strain PCM 2057
Type: functional

Below are worked cases with known answers.
CC(C)CC(N)C(=O)NC(C1CCC1)P(=O)(O)O (stereo unspecified)
> 512 mg/L
CC(N)C(=O)NC(C12CC3CC(CC(C3)C1)C2)P(=O)(O)O (stereo unspecified)
> 512 mg/L
CC(C)CC(N)C(=O)NC(C(C)C)P(=O)(O)O (stereo unspecified)
> 512 mg/L
CC(C)CC(N)C(=O)NC(C1CCCCC1)P(=O)(O)O (stereo unspecified)
> 512 mg/L
CC(C)CC(N)C(=O)NC(C)P(=O)(O)O (stereo unspecified)
8 mg/L

Qu. Field: MIC (Escherichia coli). Entry: COc1ccc(CC(NC(=O)C(N)CC(C)C)P(=O)(O)O)cc1OC (stereo unspecified)
Ans. > 512 mg/L

Qu. Field: MIC (Escherichia coli). Entry: CC(C)CC(N)C(=O)NC(C)(C)P(=O)(O)O (stereo unspecified)
Ans. 64 mg/L

Qu. Field: MIC (Escherichia coli). Entry: COc1ccc(CC(NC(=O)C(C)N)P(=O)(O)O)cc1OC (stereo unspecified)
Ans. > 512 mg/L

Qu. Field: MIC (Escherichia coli). Entry: CC(C)CC(N)C(=O)N1CCCC1P(=O)(O)O (stereo unspecified)
Ans. 128 mg/L
